B1: Azoarcus group I ribozyme (parent)
chain: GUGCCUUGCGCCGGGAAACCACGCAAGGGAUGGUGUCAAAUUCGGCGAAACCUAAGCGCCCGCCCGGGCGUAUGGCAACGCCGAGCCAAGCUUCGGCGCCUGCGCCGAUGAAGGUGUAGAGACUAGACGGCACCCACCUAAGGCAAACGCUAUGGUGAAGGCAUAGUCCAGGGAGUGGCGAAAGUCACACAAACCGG

Variants of: B1
protocolText: reverse-splicing fitness (ratio to wild type); higher = more active; in vitro selection; Mg2+ level not given
experimentalEndpoint: reverse-splicing fitness
Please give the numeric answer without any surrounding text.

>  <changes>
C82A A111C A120G C150U U176A

>  <reverse-splicing fitness>
0.0116

$$$$
>  <changes>
A111U A145C C169U U176C

>  <reverse-splicing fitness>
0.0265

$$$$
>  <changes>
C82A A111C A145C C169A U176C

>  <reverse-splicing fitness>
0.00942

$$$$
>  <changes>
C82U A111G A120G A145C C169U U176A

>  <reverse-splicing fitness>
0.0189

$$$$

Entry under review: C82G A120C A145C C150U C169G . Reported reverse-splicing fitness? 0.00749

Entry under review: C82G A111U A120C A145C U176G . Reported reverse-splicing fitness? 0.00674

Entry under review: C82A A111C A120U A145C C150U C169G U176G . Reported reverse-splicing fitness? 0.00286

Entry under review: C82A A111G A120U A145G C150U C169A U176G . Reported reverse-splicing fitness? 0.00232

Entry under review: C82G A111U A120C A145C C169A . Reported reverse-splicing fitness? 0.00886

Entry under review: C82U A111G C150G C169U U176G . Reported reverse-splicing fitness? 0.00511

Entry under review: C82A A111U A120U A145G . Reported reverse-splicing fitness? 0.0209

Entry under review: A111G A120G A145U C150A C169A U176A . Reported reverse-splicing fitness? 0.0157

Entry under review: A120G A145G C150G C169G U176A . Reported reverse-splicing fitness? 0.0179

Entry under review: C82G A111C A120U A145C C150G C169G U176A . Reported reverse-splicing fitness? 0.00317

Entry under review: C82U A111C A120G A145U C150A C169U . Reported reverse-splicing fitness? 0.006

Entry under review: C82A A111G A145C C150A C169G U176C . Reported reverse-splicing fitness? 0.0145

Entry under review: C82G A120C A145U C150U C169G . Reported reverse-splicing fitness? 0.00838

Entry under review: A111G A145U U176C . Reported reverse-splicing fitness? 0.809

Entry under review: C82U A120G A145G C150G C169G U176C . Reported reverse-splicing fitness? 0.0112

Entry under review: A145C C150A C169U U176C . Reported reverse-splicing fitness? 0.0218

Entry under review: C82U A111G A120U A145G U176A . Reported reverse-splicing fitness? 0.0106

Entry under review: C82U A111G A145C C150U C169G U176G . Reported reverse-splicing fitness? 0.00565

Entry under review: C82A A111C A120U C150U C169A . Reported reverse-splicing fitness? 0.0052

Entry under review: C82G A111C A120C C150U U176G . Reported reverse-splicing fitness? 0.00767

Entry under review: C82G A111G A120G A145C C169G U176C . Reported reverse-splicing fitness? 0.0207

Entry under review: C82A A111U A120C U176A . Reported reverse-splicing fitness? 0.0152

Entry under review: C150A U176A . Reported reverse-splicing fitness? 0.406
